tested on: Fibroblast; assay: Multiplex assay against human fibroblast; type: toxicity, cell-based; conditions: 48 h, 1 µM, compound concentration 1 uM, replicate 1
Reported Population Healthy Nuclei (%) is given for each of the following compounds.
METRIC: Population Healthy Nuclei (%)

Cl.Cl.OCCOCCN1CCN(C(c2ccccc2)c2ccc(Cl)cc2)CC1 (stereo not drawn) [HYDROXYZINE HYDROCHLORIDE]; 68%
CSc1nc(NC2CCCC2)c([N+](=O)[O-])c(NC2CCCC2)n1 [GS-39783]; 69%
CCc1nn2c(C)cc(C)nc2c1Cc1ccc(-c2nnc(C3CCNCC3)o2)cc1; 70%
COc1ccc2c(c1OCc1ccccc1)C[C@@H](C(=O)O)N(C(=O)C(c1ccccc1)c1ccccc1)C2 [OLODANRIGAN]; 58%
CN(C)C/C=C/C(=O)Nc1ccc(C(=O)N2CCCC(Nc3ncc(Cl)c(-c4c[nH]c5ccccc45)n3)C2)cc1 (stereo not drawn); 36%
Cc1sc2c(c1C)C(c1ccc(Cl)cc1)=N[C@H](CC(=O)OC(C)(C)C)c1nnc(C)n1-2; 66%
N[C@](CC1c2ccccc2Oc2ccccc21)(C(=O)O)[C@H]1C[C@@H]1C(=O)O; 68%
COc1cc(C(=O)N2CC[C@@H](O)[C@@H](N)C2)cc2nc(-c3cc4ccccc4n3CC3CC3)n(C)c12.Cl; 67%
